# credit: patent US20200079833A1

# Target Desc: GLP-1 receptor (GLP-1R) (human, UniProt P43220 24-463)
# Test Description: cell-based or functional assay
Starred links: 1 amine or outer side, 2 acyl side, 3 side chain; linkers in the order of their positions; H or OH if unused. Non-standard residues stand in square brackets, D forms with d. Groups on a side chain read outwards from the residue. Primed or numbered codes have the meaning given here. No end group written: not given here. *: point of attachment. γGlu = O=C(O)[C@H](CCC(=O)[*:2])N[*:1]; Stearoyl = CCCCCCCCCCCCCCCCCC(=O)*; αMeF = C[C@](N)(Cc1ccccc1)C(=O)O; αMeK = C[C@](N)(CCCCN)C(=O)O; Lauroyl = CCCCCCCCCCCC(=O)*; αMeS = C[C@](N)(CO)C(=O)O; PEG2′ = not defined here; Aib = CC(C)(N)C(=O)O
Endpoint Name: cAMP Primary assay EC50 GLP-1R n1 (nM)

(A) H[Aib]EGS[αMeF]TK([PEG2′-PEG2′-γGlu-Stearoyl])DV[αMeS]S[αMeF]LEGEAA[αMeK]E[αMeF]IA[αMeF]VV[αMeK]GG-NH2 [SEQ ID NO 121]
(B) H[Aib]EGS[αMeF]TSDV[αMeS]S[αMeF]LEK([PEG2′-PEG2′-γGlu-Stearoyl])EAA[αMeK]E[αMeF]IA[αMeF]VV[αMeK]GG-NH2 [SEQ ID NO 113]
(C) H[Aib]EGS[αMeF]TSDV[αMeS]S[αMeF]LEGEAAK([PEG2′-Lauroyl])E[αMeF]IA[αMeF]VV[αMeK]GG-NH2 [SEQ ID NO 134]
[ask] Rank the items above by cAMP Primary assay EC50 GLP-1R n1, largest value first. Hello, could you send the labels back in the order asked? Thank you.
[reply] A, B, C
(A: 25 nM, B: 0.018 nM, C: 0.007 nM)
